molecular target: glucagon receptor (Rattus norvegicus); experiment: Experiment for glucagon binding inhibition, rat hepatic membrane (125I-glucagon); conditions: male SD rat hepatic membrane, 125I-glucagon 50 pM, 25° C. for 30 minutes; read-out: Glucagon binding inhibitory activity IC50 (nM) Rat
Sequence (P30082 27-485): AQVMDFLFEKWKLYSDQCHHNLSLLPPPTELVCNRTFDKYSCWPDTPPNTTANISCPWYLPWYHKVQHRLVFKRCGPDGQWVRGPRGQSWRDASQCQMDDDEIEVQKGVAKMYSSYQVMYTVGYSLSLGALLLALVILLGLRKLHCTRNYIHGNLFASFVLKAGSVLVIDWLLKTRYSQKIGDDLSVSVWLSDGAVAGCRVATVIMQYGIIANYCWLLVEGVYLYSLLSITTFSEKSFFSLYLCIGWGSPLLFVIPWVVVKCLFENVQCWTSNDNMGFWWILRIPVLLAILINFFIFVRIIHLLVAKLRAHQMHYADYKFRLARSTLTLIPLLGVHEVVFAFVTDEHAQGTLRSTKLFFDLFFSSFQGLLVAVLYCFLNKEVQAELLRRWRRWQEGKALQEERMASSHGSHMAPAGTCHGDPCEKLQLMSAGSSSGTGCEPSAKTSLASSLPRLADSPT
endpoint.label: IC50 (nM)

compound.structure.string: O=C(NNC(=O)c1occ(-c2ccccc2)c1-c1ccccc1)c1ccc(O)c(C(F)(F)F)c1
unit.abbrev: nM
IC50: 160

compound.structure.string: CC=CCOc1cccc(-c2ccoc2C(=O)NNC(=O)c2ccc(O)c([N+](=O)[O-])c2)c1
unit.abbrev: nM
IC50: 75

compound.structure.string: CC(C)Oc1ccccc1-c1ccoc1C(=O)NNC(=O)c1ccc(O)c(C#N)c1
unit.abbrev: nM
IC50: 180

I = N#Cc1cc(C(=O)NNC(=O)c2occc2-c2ccccc2Oc2ccccc2)ccc1O
II = CCCCc1ccc(-c2ccoc2C(=O)NNC(=O)c2ccc(O)c([N+](=O)[O-])c2)cc1
III = O=C(NNC(=O)c1occc1-c1ccc2[nH]ccc2c1)c1ccc(O)c([N+](=O)[O-])c1
IV = C=CCOc1cccc(-c2ccoc2C(=O)NNC(=O)c2ccc(O)c([N+](=O)[O-])c2)c1
## Task Given 4 compounds, produce a descending ranking by IC50. Please, when replying, give the labels in the order that was requested.
## Result I, IV, III, II
(I: 190 nM, IV: 99 nM, III: 8 nM, II: 5.5 nM)
